All figures here come from the RNAGym collection of RNA variant scans (doi:10.1126/science.aae0568).

B1: tRNA (parent)
chain: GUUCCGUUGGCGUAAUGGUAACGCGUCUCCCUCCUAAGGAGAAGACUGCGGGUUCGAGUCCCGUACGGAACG

variants of: B1; experiment: yeast fitness relative to wild type (ratio to wild type); higher = fitter; tRNA-Arg(CCU), competitive growth, 37 C, YPD
This sample holds only a part of the variants without activity.
Observable: yeast fitness
# output: bare number, no unit

Reference set (2 entries):
# Mutation notation, Observable, Measured result
measured = [
    ("U7A C46G C66G", "yeast fitness", 0.547),
    ("C30G C61U A70G", "yeast fitness", 0.603),
]

Complete the entry with yeast fitness for C31G G56A
0.98

Quick one: give measured yeast fitness for C11A C27U U28C A57C C62A
0.716

Return reported yeast fitness. Input variant: U3A A70G
1

Fill in yeast fitness for record C4U G38C
0.825

State, in one line, measured yeast fitness of C24U A42G A43G
0.733
